Entries and their polymerase ribozyme fitness (log ratio)
B1: TPR t1 (parent)
chain: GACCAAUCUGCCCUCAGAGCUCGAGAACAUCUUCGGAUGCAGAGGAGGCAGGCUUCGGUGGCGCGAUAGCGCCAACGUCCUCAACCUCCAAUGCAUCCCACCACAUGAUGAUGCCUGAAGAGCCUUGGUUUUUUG

Variants of: B1
Assay: polymerase ribozyme fitness, log enrichment relative to wild type (log ratio); higher = more active; in vitro selection for triplet polymerase activity
Please give the numeric answer without any surrounding text.

GACCAAUCUGCCCUCAGAGCCCGAGAACAUCUUCGGAUGCAGAGGAGGCAGGCUUUGGUGGCGCGAUAGCGCCAACGUCCUCACCCUCCAAUGCAUCACACCACAUGAUGAUGCCUGAAGAGCCUUGGUUUUUUG [U21C C56U A84C C98A]
-4.77
GACCAAUCUGCCCUCAGAGCUCGAGAACAUCUUCGGAUGCAGAGGAGGCAGGCUUCGGUCGCGCGAUAGCGCCAACGUCCUCAACCUCCAAUGCAUCCCACCACAUGAUGAUGCCUGAAGAGUCUUGGUUUUUUG [G60C C123U]
0.343
GACCAAUCUACCCUCAGAGCUCGAGAACAUCUUCGGAUGCAGAGGAGGCAGGCUUCGGUGGCGCGAUAGCGCCAACGUCCUCAACCUCCAAUGCAUCCCACCACAUGAUGAUGCCUGAAGAGCCUUGUUUUUUUG [G10A G128U]
-2.02
GACCAAACUGCCCUCAGAGCCCGAGAACAUCUUCGGAUGCAGAGGAGGCAGGCUUCGGUGGCGCGAUAGCGCCAACGUCCUCAACCUCCAAUGCAUCCCACCACAUGAUGAUGCCUGAAGAGCCUUGGUUUUUUG [U7A U21C]
0.0698
GACCAAUCUGCCCUCAGAGCUCGAGAACAUCUUCGGAUACAGAGGAGGCAGGCUUCGGUAGCGCGAUAGCGCCAACGUCCUCAACUUCCAAUGCAUCCCACCACAUGAUGAUGCCAGAAGAGCCUUGGUUUUUUG [G39A G60A C86U U116A]
-3.99

polymerase ribozyme fitness (log ratio) in this record for GACCAAUCUGCCCUCAGAGCUCGAGAACAUCUUCGGAUGCAGAGGAGGCAGGCUUCGGUGGCGCGAUAGCGCCAACGUCCUCAACCUCCAAUGCAUCUCACCACAUGAUGAUGCCUGAACAGCCUUGGUUUUUUG [C98U G120C] : -0.208

The reported polymerase ribozyme fitness (log ratio) of the variant GACCAAUCUGCCCUCAGAGCUCGAGAACCUCUUCGGAUGCAGAGGAGGCAGGCUUCGGUGUCGCGAUAGCGCCAACGUCCUCAACCUCCGAUGCAUCCCACCACAUGAUGAUGCCGGAAGAGCCUUGGUUUUUUG [A29C G61U A90G U116G] was -5.84

response.value for GACCAAUCUGCCCUCAGAGCUCGAGAACAUCUUCGGAUGCAGAGGAAGCAGGCUUCGGUGGCGCGAUAUCGCCAACCUCCUCAACCUCCAAUGCAUCCUACCACAUGAUGAUGGCUGAAGAGCCUUGGUUUUUUG [G47A G69U G77C C99U C114G] (field: polymerase ribozyme fitness (log ratio)) = -3.2

Record GACCAAUGUGCCCUCAGUGCUCGAGAACAUCUUCGGAUGCAGAGAAGGCAGGCUUCGGUGGCGCGAUAGCGCCAACGUUCUCAACCUCCAAUGCAUCCCUCCCCAUGAUGAUGUCUGAAGAGCCUUGGUUUUUUG [C8G A18U G45A C79U A100U A103C C114U] . Reported polymerase ribozyme fitness (log ratio): -4.29

Quick note, polymerase ribozyme fitness (log ratio) for GACCAAUCUGCCCUCAGAGUUCGAGAACAUCUUCGGAUGCAGAGGAGGCAGGCUUCGGUGGCGCGAUAGCGCCAACGUCCUCAACCUCCAAUGCAUCCCACCACACGAUGAUGCCUGAAGAGCCUUGGUUUUUUG [C20U U106C] landed at -2.1

The variant listed as GACCAAUCUGCCCUUAGAGCUCGAGAACAUCUUCGGAUGCAGAGGAGGCCGGCUUCGGUGGCGCGAUAGCGCCAACGUCCUCAACCUCCAAUGCAUCCCACCACAUGAUGAUGCCUGAAGAGCCUUGGUUUUUUG [C15U A50C] shows polymerase ribozyme fitness (log ratio) equal to -1.84
